test system: Saccharomyces cerevisiae; experiment: protein stability index of tFT-peptide fusion in deletion strain of DAS1 (PSI (0-1 scale)); higher = more stable (slower turnover);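 further: PSI is a weighted mean of each variant's read distribution over the sorted stability bins, computed only for variants having over 10 reads in total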
READOUT_KIND: protein stability index

1. LKCLRQKMNHQN 0.682
2. KPHKKGQKQKIN 0.625
3. KTHKKGQKQKIN 0.684
4. VRGAVGGWRAVG 0.67
5. RLIQPLPVQFNN 0.6
6. RLIQQLPVQFLN 0.602
7. PSLFASFWRVVG 0.694
8. CTSCGYKFRTYN 0.696
9. KKHKKGQKQKINL 0.663
10. LKILRQKFNHQN 0.668
11. PSLAASFWRVCG 0.659
12. RLIQPLPVQFCN 0.681
13. KKPKKGQKQKIN 0.591
14. PDKRAHLIKLLN 0.617
15. LKILRMKMNHQN 0.71
16. PDKRNHLIQLLN 0.616
17. PDKRNHLIKLPN 0.587
18. PDKRSHLIKLLN 0.631
19. VRGRVGGWRLVG 0.675
20. VRGAVRGWRLVG 0.7
21. LKILRHKMNHQN 0.693
22. PSLAASFVRVVG 0.514
23. KKHKKGQKQKDN 0.638
24. LKILRQKMDHQN 0.673
25. VRGAVFGWRLVG 0.678
26. LVVYLSHVACIN 0.411
27. PDKRNHLIKLVN 0.645
28. LVVYLSRVACIN 0.356
29. ARWRVGLWRGASW 0.71
30. CTSCGYKFRFNN 0.699
31. ARWRVALWRGAS 0.671
32. KKHKKGQKQKKN 0.843
33. LKIGRQKMNHQN 0.674
34. LVVYLSCVACINV 0.0328
35. ARWRVGLWRGASR 0.676
36. LKIQRQKMNHQN 0.676
37. PDKRNHLIKPLN 0.586
38. PDKRNHLIKLIN 0.612
39. QVVYLSCVACIN 0.0307
40. PSLAASFWRVVP 0.688
41. RLIQPLPVQFLNR 0.669
42. LEILRQKMNHQN 0.672
43. FSMRNTFRYWVN 0.578
44. FSMRWNFRYWVN 0.536
45. ALWRVGLWRGAS 0.707
46. CTSCGYKFRTNS 0.697
47. CTSCGYKQRTNN 0.688
48. CTHCGYKFRTNN 0.709
49. PDKRNHLQKLLN 0.582
50. LYILRQKMNHQN 0.666
51. ARWRVGLWTGAS 0.677
52. CTSCGYKFRRNN 0.703
53. ARWRAGLWRGAS 0.7
54. RCIQPLPVQFLN 0.572
55. RLIQPLPVQDLN 0.576
56. PDKRNWLIKLLN 0.675
57. FSMRWTFRWWVN 0.462
58. PDKRNHLIKLLI 0.594
59. LVVPLSCVACIN 0.359
60. VRGAVGGWRLHG 0.662
61. RLIQPFPVQFLN 0.778
62. FSMRWTFRYWVM 0.482
63. PSLAASFHRVVG 0.649

Source of measurements: the supplement of paper PMC10724198
